The measurements presented in this section are drawn from the supplement of paper PMC10567573.

B1: RAB40A (parent)
chain: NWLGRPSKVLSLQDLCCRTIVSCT

Variants of: B1
procedure.summary: protein stability index of a GFP-peptide fusion (GPS, HEK-293T) (PSI 1-6); higher = more stable;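 further: lentivirally expressed fusions sorted by FACS into six bins by GFP to DsRed ratio, PSI derived from sequencing read proportions per bin multiplied by bin number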
experimental.context: c terminus: a fixed tail appended
Entries annotated with measured protein stability index
measured.quantity: protein stability index

>>> assay_value("AWLGRPSKVLSLQDLCCRTIVSCT [N1A]")
2.04
>>> assay_value("NWLGRPSKVLSLQDLCCRTIVTCT [S22T]")
2.4
>>> assay_value("NWMGRPSKVLSLQDLCCRTIVSCT [L3M]")
2.2
>>> assay_value("NWLGRPSKVLSLQDLCYRTIVSCT [C17Y]")
2.22
>>> assay_value("NWLGCPSKVLSLQDLCCRTIVSCT [R5C]")
2.76
>>> assay_value("NWLGRPSKVLNLQDLCCRTIVSCT [S11N]")
2.22
>>> assay_value("NWLGRPSKVLSMQDLCCRTIVSCT [L12M]")
1.95
>>> assay_value("NWLGRPSKVLSLQDLACRTIVSCT [C16A]")
2.5
>>> assay_value("NWLGRPSKVLSLQDLCCRTIVGCT [S22G]")
2.57
>>> assay_value("NWLGRPSKMLSLQDLCCRTIVSCT [V9M]")
2.23
>>> assay_value("NWLGRPSKVLSLQDLCCRTIVHCT [S22H]")
2.26
>>> assay_value("NWLGRPSRVLSLQDLCCRTIVSCT [K8R]")
2.65
>>> assay_value("NWLGRPSKVMSLQDLCCRTIVSCT [L10M]")
2.56
>>> assay_value("NWLGRPSKVLSLQDLCCRTIVSAT [C23A]")
2.74
>>> assay_value("NWLGRPSKILSLQDLCCRTIVSCT [V9I]")
2.36
>>> assay_value("NWLGRPSKVLSLQDLCCYTIVSCT [R18Y]")
1.73
>>> assay_value("NWLGRPSKVSSLQDLCCRTIVSCT [L10S]")
2.57
>>> assay_value("NWLGRPSKVPSLQDLCCRTIVSCT [L10P]")
2.62
>>> assay_value("NWLGRPSIVLSLQDLCCRTIVSCT [K8I]")
2.11
>>> assay_value("NWLGRPSKVLWLQDLCCRTIVSCT [S11W]")
1.77
>>> assay_value("KWLGRPSKVLSLQDLCCRTIVSCT [N1K]")
1.97
>>> assay_value("NWLGRPIKVLSLQDLCCRTIVSCT [S7I]")
2.25
>>> assay_value("NWLVRPSKVLSLQDLCCRTIVSCT [G4V]")
2.56
>>> assay_value("NWLGRPSKVLSLQDPCCRTIVSCT [L15P]")
1.62
>>> assay_value("NWLGRPSKRLSLQDLCCRTIVSCT [V9R]")
1.85
>>> assay_value("NWEGRPSKVLSLQDLCCRTIVSCT [L3E]")
2.75
>>> assay_value("NWLGRPSKVLSLQDLCCRTQVSCT [I20Q]")
2.26
>>> assay_value("NWLGRPWKVLSLQDLCCRTIVSCT [S7W]")
1.82
>>> assay_value("NWLGRPSKVLSLQDLCCRTIVNCT [S22N]")
2.69
>>> assay_value("NWLGRPSKVLRLQDLCCRTIVSCT [S11R]")
2.2
>>> assay_value("NGLGRPSKVLSLQDLCCRTIVSCT [W2G]")
3.23
>>> assay_value("NWLGRPSKVLSLQHLCCRTIVSCT [D14H]")
2.13
>>> assay_value("NWLGRPSKPLSLQDLCCRTIVSCT [V9P]")
2.09
>>> assay_value("NWLGRPSKVLSLLDLCCRTIVSCT [Q13L]")
2.44
>>> assay_value("NWLGRPSKVLSLQDHCCRTIVSCT [L15H]")
1.99
>>> assay_value("NWLGRPSKVLSLQDLCCRTIVSCP [T24P]")
3.02
>>> assay_value("NWLGRPSKVLSLQDLCCRGIVSCT [T19G]")
2.07
>>> assay_value("NWLGRPSKVLSLQDLCCRTIVSFT [C23F]")
2.33
>>> assay_value("QWLGRPSKVLSLQDLCCRTIVSCT [N1Q]")
2.29
